Reference source for all entries: the supplement of paper PMC11451515

Test system: SEM cells
Assay: cell viability relative to DMSO control; higher = less cytotoxic
Conditions: RPMI 5 mM glucose + 10% dialyzed FBS; 48 h; 0.19 µM
Measured cell viability by item
Express the result in % but write the number alone.

// recorded cell viability for `Cc1ccc(Nc2cc(-c3cccc(N4C(=O)c5ccccc5C4=O)c3)ncn2)cc1N[S+](C)(=O)[O-]` : 115

So for `CCCCc1ccc2[nH]c(NC(=O)OC)nc2c1` , the logged cell viability turned out to be 23.5

`CC[C@H]1OC(=O)[C@H](C)[C@@H](O[C@H]2C[C@@](C)(OC)[C@@H](O)[C@H](C)O2)[C@H](C)[C@@H](O[C@@H]2O[C@H](C)C[C@H](N(C)C)[C@H]2O)[C@](C)(OC)C[C@@H](C)C(=O)[C@H](C)[C@@H](O)[C@]1(C)O` yielded cell viability of 105

Note to self: cell viability recorded for `CC1(COc2ccc3c(c2)ncn3-c2ccc3cccc(N4CCC(N)CC4)c3n2)COC1` was 51.1
